# credit: ChEMBL document CHEMBL1131608

# target_or_test_system: Adenosine receptor A3 (Homo sapiens) (UniProt P0DMS8)
# Sequence (whole entry): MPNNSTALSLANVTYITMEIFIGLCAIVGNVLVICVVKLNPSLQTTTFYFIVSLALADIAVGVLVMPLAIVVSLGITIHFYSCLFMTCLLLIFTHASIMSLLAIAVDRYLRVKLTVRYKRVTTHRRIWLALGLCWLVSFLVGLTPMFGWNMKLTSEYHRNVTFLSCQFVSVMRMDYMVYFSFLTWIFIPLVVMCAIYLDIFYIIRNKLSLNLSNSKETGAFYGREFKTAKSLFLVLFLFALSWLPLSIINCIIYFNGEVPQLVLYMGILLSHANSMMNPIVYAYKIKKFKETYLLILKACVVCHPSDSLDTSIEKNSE
# assay_name: Binding affinity towards adenosine A3 receptor by measuring its ability to displace [125I]AB-MECA binding to membranes prepared from HEK293 cells
# Format: cell membranes
Reported Ki values for the following compounds.
Return type: number; implicit unit nM.

Query: So what Ki did CCOC(=O)C1=C(c2ccccc2)N=C(C)/C(=C(/O)OCC)C1C(OC)OC (stereo not given) get with Adenosine receptor A3 (Homo sapiens) (UniProt P0DMS8)?
Reply: 15300

Query: So what Ki did CCOC(=O)c1c(-c2ccccc2)nc(C2CCC2)c(C(=O)SCC)c1CC get with Adenosine receptor A3 (Homo sapiens) (UniProt P0DMS8)?
Reply: 145

Query: So what Ki did CCOC(=O)c1c(CC)nc(-c2ccccc2)c(C(=O)OCC)c1C get with Adenosine receptor A3 (Homo sapiens) (UniProt P0DMS8)?
Reply: 121

Query: So what Ki did CCSC(=O)c1c(C)nc(-c2ccccc2)c(C(=O)Oc2ccccc2)c1CC get with Adenosine receptor A3 (Homo sapiens) (UniProt P0DMS8)?
Reply: 2610

Query: So what Ki did CCOC(=O)c1c(-c2ccccc2)nc(CC)c(C(=O)O)c1CC get with Adenosine receptor A3 (Homo sapiens) (UniProt P0DMS8)?
Reply: 1280
